Assay: Half-lives after intravenous dosage in rats
Details: rat, in vivo, 5 mg/kg, two rats, i.v. 5 mg/kg, read-out: half-life, distribution phase (converted)
From the text: Studies on a limited number of animal have been conducted to determine the approximate half-life of TCPT.
MEASURED ENDPOINT: half-life

Clc1cc2c(cc1Cl)Sc1cc(Cl)c(Cl)cc1N2 [TCPT, 2,3,7,8-tetrachlorophenothiazine]    49.2 min

----------
Assay: Half-lives after intravenous dosage in rats
Settings: rat, in vivo, 10 mg/kg, one rat, i.v. 10 mg/kg, read-out: half-life, elimination phase (converted)
Description: Studies on a limited number of animal have been conducted to determine the approximate half-life of TCPT.
MEASURED ENDPOINT: half-life (h)

Clc1cc2c(cc1Cl)Sc1cc(Cl)c(Cl)cc1N2    2.25
